The reader will find reported Relative K′ of bis-ANS (energy transfer), normalized to wild-type values listed item by item below.
TEST DETAILS: Energy transfer
Assay type: binding
TEST PARAMETERS: value in parenthesis
Number only, please.

Use the examples below as a reference point.
MOLECULE	VALUE MEASURED
Y40R: BMPR-II ECD single-amino-acid-substitution mutant Y40R (protein, left off: TRX, N-terminal, cleaved | His6, C-terminal, state not stated) ASQNQERLCAFKDPRQQDLGIGESRISHENGTILCSKGSTCYGLWEKSKGDINLVKQGCWSHIGDPQECHYEECVVTTTPPSIQNGTYRFCCCSTDLCNVNFTENFPPPDTTPLSPPHSFNRDET	0.9
Y40P: BMPR-II ECD single-amino-acid-substitution mutant Y40P (protein, left off: TRX, N-terminal, cleaved | His6, C-terminal, state not stated) ASQNQERLCAFKDPPQQDLGIGESRISHENGTILCSKGSTCYGLWEKSKGDINLVKQGCWSHIGDPQECHYEECVVTTTPPSIQNGTYRFCCCSTDLCNVNFTENFPPPDTTPLSPPHSFNRDET	1.6

Pending molecule:
Measured Relative K′ of bis-ANS (energy transfer), normalized to wild-type, Y40Q: BMPR-II ECD single-amino-acid-substitution mutant Y40Q (protein, left off: TRX, N-terminal, cleaved | His6, C-terminal, state not stated) ASQNQERLCAFKDPQQQDLGIGESRISHENGTILCSKGSTCYGLWEKSKGDINLVKQGCWSHIGDPQECHYEECVVTTTPPSIQNGTYRFCCCSTDLCNVNFTENFPPPDTTPLSPPHSFNRDET : 1.9
